Reference source: ChEMBL document CHEMBL5442219

- test-system: Muscarinic acetylcholine receptor M3 (Homo sapiens) (UniProt P20309)
- Sequence (P20309 whole entry, looked up): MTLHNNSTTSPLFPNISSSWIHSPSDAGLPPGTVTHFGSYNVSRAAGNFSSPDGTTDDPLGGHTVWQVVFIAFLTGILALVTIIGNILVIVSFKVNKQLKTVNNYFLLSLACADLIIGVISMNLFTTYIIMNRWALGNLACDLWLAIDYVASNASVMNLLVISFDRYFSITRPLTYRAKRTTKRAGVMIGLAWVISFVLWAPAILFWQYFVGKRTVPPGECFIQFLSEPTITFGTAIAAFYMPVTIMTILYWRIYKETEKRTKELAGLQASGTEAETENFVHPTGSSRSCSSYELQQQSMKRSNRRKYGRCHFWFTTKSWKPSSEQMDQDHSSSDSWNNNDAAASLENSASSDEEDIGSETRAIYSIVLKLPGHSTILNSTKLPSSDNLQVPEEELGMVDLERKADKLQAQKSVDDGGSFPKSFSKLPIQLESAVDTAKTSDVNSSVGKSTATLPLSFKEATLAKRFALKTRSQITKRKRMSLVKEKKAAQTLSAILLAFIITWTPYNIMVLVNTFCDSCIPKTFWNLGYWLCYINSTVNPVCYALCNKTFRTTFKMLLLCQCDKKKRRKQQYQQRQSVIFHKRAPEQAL
- protocol-conditions: Compound concentration 10 µM
- Description: PDSP Primary Binding target: CHRM3 - Compounds are tested at 10 uM concentration, plate are incubated at room temperature in the dark for 90 minutes. Reaction are stopped by vacuum filtration onto 0.3% polyethyleneimine soaked filter mats using Filtermate harvester. Scintilation cocktail is then melted onto microwave-dried filters on a hot plate and the radio activity is counted in Microbia counter.
Measured inhibition accompanies every entry in the list below.
Report the figure in % without appending any unit label.

Answered examples (4):
Cc1nc(-c2ccc(-c3ccc(C(=O)N4CCc5cc6c(cc54)C4(CCN(C)CC4)CO6)cc3)c(C)c2)no1 : 73
CN1CCCC(n2nc(Cc3ccc(Cl)cc3)c3ccccc3c2=O)CC1 (stereo not given) : 57.3
CN1C2CCC1CC(OC(c1ccc(F)cc1)c1ccc(F)cc1)C2 (stereo not given) : 95.9
OC[C@H]1O[C@@H](n2cnc3c(NC4CCCC4)ncnc32)[C@H](O)[C@@H]1O : -0.28

query: Consider the molecule Cc1cc(NC(=O)NCCN2CCC(O)(Cc3ccccc3)CC2)c2ccccc2n1 tested on Muscarinic acetylcholine receptor M3 (Homo sapiens) (UniProt P20309); state its inhibition.
result: 24.4

====

- test-system: UniProtKB P07550
- Sequence (P07550 whole entry, looked up): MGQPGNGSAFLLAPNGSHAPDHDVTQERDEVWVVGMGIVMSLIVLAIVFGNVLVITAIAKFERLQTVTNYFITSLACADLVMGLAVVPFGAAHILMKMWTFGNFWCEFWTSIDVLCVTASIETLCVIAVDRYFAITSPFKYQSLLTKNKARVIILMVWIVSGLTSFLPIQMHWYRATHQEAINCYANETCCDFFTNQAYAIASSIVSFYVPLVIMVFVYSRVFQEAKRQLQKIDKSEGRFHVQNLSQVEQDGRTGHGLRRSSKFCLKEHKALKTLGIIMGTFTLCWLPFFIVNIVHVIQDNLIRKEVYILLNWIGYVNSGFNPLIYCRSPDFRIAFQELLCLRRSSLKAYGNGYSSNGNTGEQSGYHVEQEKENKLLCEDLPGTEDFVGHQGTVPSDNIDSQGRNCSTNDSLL
- protocol-conditions: Compound concentration 10 µM
- Description: PDSP Primary Binding target: ADRB2 - Compounds are tested at 10 uM concentration, plate are incubated at room temperature in the dark for 90 minutes. Reaction are stopped by vacuum filtration onto 0.3% polyethyleneimine soaked filter mats using Filtermate harvester. Scintilation cocktail is then melted onto microwave-dried filters on a hot plate and the radio activity is counted in Microbia counter.
Use y when the recorded inhibition is no lower than 10%; use n when it is lower.

Solved cases (5 shown):
N=C(N)SCCc1c[nH]cn1 : n
Clc1cccc(COc2cncc(N3CCNCC3)n2)c1 : y
CCCCN1CCC(COC(=O)c2cc(Cl)c(N)c3c2OCCO3)CC1 : y
C[C@H](NC[C@H](O)CP(=O)(O)CC1CCCCC1)c1ccc(Cl)c(Cl)c1 : n
NC[C@H](O)c1ccc(O)c(O)c1 : y

query: Could you tell me if the measured inhibition of c1cc(CN2CCCNCCNCCCNCC2)ccc1CN1CCCNCCNCCCNCC1 reaches 10% or more?
result: n

====

- test-system: D(1B) dopamine receptor (Homo sapiens) (UniProt P21918)
- Sequence (P21918 whole entry): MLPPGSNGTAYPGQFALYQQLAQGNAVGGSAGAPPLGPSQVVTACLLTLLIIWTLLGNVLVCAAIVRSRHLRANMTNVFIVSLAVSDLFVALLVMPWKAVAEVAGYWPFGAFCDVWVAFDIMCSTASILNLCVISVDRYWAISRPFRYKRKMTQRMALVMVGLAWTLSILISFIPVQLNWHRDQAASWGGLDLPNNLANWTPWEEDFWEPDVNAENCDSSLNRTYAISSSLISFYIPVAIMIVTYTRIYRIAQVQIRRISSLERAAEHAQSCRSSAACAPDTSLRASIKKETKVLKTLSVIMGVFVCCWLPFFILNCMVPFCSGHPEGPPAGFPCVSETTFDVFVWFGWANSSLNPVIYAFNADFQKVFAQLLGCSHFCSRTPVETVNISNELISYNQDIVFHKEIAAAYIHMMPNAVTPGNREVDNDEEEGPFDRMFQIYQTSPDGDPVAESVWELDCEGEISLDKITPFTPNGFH
- protocol-conditions: Compound concentration 10 µM
- Description: PDSP Primary Binding target: DRD5 - Compounds are tested at 10 uM concentration, plate are incubated at room temperature in the dark for 90 minutes. Reaction are stopped by vacuum filtration onto 0.3% polyethyleneimine soaked filter mats using Filtermate harvester. Scintilation cocktail is then melted onto microwave-dried filters on a hot plate and the radio activity is counted in Microbia counter.
metric: inhibition

O=C1O[C@]2(CC[C@H](C(=O)Nc3ccn(-c4ccccc4F)n3)CC2)c2cnccc21 : -8.27%

query: Please indicate inhibition recorded for C[C@]1(C(=O)N(CCCC(=O)O)Cc2cccc(Cl)c2)CCN1C(=O)c1csc2ccccc12
result: -8.24%

query: Name the recorded inhibition of the item Cc1nn(C)c(C)c1-c1cccc2c1CC[C@H](N(C)C)C2 in your answer.
result: 26%

query: Specify measured inhibition for Clc1cccc(COc2cncc(N3CCNCC3)n2)c1 .
result: 11.8%

====

- test-system: 5-hydroxytryptamine receptor 5A (Homo sapiens) (UniProt P47898)
- Sequence (P47898 whole entry): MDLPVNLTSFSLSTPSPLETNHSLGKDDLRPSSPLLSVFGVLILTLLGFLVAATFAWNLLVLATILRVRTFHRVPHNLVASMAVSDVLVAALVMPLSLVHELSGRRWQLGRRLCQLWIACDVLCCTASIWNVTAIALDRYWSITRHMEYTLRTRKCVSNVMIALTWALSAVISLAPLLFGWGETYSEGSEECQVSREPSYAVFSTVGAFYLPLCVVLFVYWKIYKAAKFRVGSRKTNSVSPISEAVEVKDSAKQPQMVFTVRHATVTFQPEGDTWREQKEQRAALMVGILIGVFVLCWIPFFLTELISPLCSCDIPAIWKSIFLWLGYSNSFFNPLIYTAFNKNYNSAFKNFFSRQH
- protocol-conditions: Compound concentration 10 µM
- Description: PDSP Primary Binding target: HTR5A - Compounds are tested at 10 uM concentration, plate are incubated at room temperature in the dark for 90 minutes. Reaction are stopped by vacuum filtration onto 0.3% polyethyleneimine soaked filter mats using Filtermate harvester. Scintilation cocktail is then melted onto microwave-dried filters on a hot plate and the radio activity is counted in Microbia counter.
metric: inhibition (%)
Answer in %, number only, no unit symbol.

Cc1nnn(-c2ccc(-c3ccc(C4(C(=O)O)CC4)cc3)cc2)c1NC(=O)O[C@H](C)c1ccccc1 : 15.6
Clc1cccc(COc2cncc(N3CCNCC3)n2)c1 : 13.2
COc1cccc([C@@H](C)NCCCc2ccccc2Cl)c1 : 61.2
COc1ccc(/C=C/CCCCOc2ccc(C(=O)c3cccc(C(=O)O)c3)cc2CCC(=O)O)cc1 : -8.69

query: Give the measured inhibition for CCCCCNC(=N)N/N=C/c1c[nH]c2ccc(OC)cc12
result: 97.6

query: Fill in inhibition for record Clc1ccc(CCCOCCCN2CCCCC2)cc1
result: -0.39

====

- test-system: Histamine H3 receptor (Homo sapiens) (UniProt Q9Y5N1)
- Sequence (Q9Y5N1 whole entry): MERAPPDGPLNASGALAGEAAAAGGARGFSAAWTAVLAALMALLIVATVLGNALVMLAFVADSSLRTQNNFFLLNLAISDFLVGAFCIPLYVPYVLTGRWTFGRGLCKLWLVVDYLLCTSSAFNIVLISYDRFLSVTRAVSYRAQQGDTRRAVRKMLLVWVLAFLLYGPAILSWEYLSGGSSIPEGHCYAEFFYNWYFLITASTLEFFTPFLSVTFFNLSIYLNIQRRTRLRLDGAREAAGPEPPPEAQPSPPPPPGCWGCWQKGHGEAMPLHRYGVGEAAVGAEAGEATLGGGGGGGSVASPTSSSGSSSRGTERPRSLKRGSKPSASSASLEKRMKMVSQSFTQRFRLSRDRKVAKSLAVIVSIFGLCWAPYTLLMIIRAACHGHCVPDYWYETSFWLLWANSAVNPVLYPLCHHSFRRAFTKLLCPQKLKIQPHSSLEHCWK
- protocol-conditions: Compound concentration 10 µM; call rule not given here
Form entry, call: pick from T for active, F for inactive

COc1ccc2[nH]cc(CCNC(C)=O)c2c1 : F
CC(C)(N)C(=O)N[C@H](COCc1ccccc1)C(=O)N1CCC2(CC1)CN(S(C)(=O)=O)c1ccccc12 : F
COc1ccc(C2(O)OC(=O)C(c3ccc4c(c3)OCO4)=C2Cc2cc(OC)c(OC)c(OC)c2)cc1 (stereo not given) : F
CN1CCN(c2ccc(Nc3c4ccccc4nc4ccccc34)cc2)CC1 : T
Cc1c(C2=CCN(C(=O)N(C)C(C)C)CC2)nnn1-c1cccnc1F : F
CNC[C@H](O)c1cccc(O)c1 : F

query: What did this assay record as the result for C[C@@H](NCCCc1cccc(C(F)(F)F)c1)c1cccc2ccccc12 ?
result: F

query: So what was the verdict on O=S1(=O)c2cccc3cccc(c23)N1CCCN1CCN(c2ccc(F)cc2)CC1 in this test?
result: F

query: Given C[C@H](NC[C@H](O)CP(=O)(O)CC1CCCCC1)c1ccc(Cl)c(Cl)c1 , state the outcome it received in this test.
result: F

query: Just curious, what result did CCCCCNC(=N)N/N=C/c1c[nH]c2ccc(OC)cc12 get here?
result: F

====

- test-system: 5-hydroxytryptamine receptor 2C (Homo sapiens) (UniProt P28335)
- Sequence (P28335 whole entry): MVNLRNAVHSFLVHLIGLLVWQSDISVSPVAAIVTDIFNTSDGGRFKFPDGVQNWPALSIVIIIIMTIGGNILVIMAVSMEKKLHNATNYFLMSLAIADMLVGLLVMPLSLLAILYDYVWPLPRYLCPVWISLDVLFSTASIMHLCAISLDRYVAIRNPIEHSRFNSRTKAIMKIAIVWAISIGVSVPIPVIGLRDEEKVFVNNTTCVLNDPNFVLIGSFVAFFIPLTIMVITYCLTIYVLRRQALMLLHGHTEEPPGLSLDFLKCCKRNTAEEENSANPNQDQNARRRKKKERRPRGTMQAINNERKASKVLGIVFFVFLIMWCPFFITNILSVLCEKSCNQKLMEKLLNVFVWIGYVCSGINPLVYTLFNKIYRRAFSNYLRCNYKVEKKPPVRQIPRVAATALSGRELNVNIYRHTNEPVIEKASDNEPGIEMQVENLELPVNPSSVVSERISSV
- protocol-conditions: Compound concentration 10 µM; call rule not given here
Assign a class; possible classes are y for active, n for inactive

CC(C)[C@H](CO)Nc1nc(Nc2cccc(Cl)c2)c2ncn(C(C)C)c2n1 : y
Cc1ccccc1N1CCN(S(=O)(=O)C[C@]23CC[C@H](C[C@@H]2NC(=O)[C@@H](N)CCS(C)(=O)=O)C3(C)C)CC1 : n

query: What did this assay record as the result for Cc1nc(-c2ccc(C(F)(F)F)cc2)sc1COc1ccc([C@H](CC(=O)O)c2ccon2)cc1 ?
result: n

query: What classification did Cc1cccc(NC(=O)N[C@@H]2N=C(c3ccccc3)c3ccccc3N(C)C2=O)c1 end up with in this test?
result: n

query: Which result was noted for this compound in the test: COc1ccc(OC(F)(F)F)cc1CN[C@H]1CCCN[C@H]1c1ccccc1
result: y

query: Each compound tested received a call. Report the one for COc1ccc(S(=O)(=O)c2cc(OC)ccc2S(=O)(=O)c2ccc([C@H](C)NS(C)(=O)=O)cc2)cc1 .
result: n

query: Which outcome was assigned to CCc1cc(C(C)=O)c(O)cc1OCCCCCC(C)(C)c1nn[nH]n1 in this test?
result: n

query: Name the outcome recorded for Clc1ccc(CCCOCCCN2CCCCC2)cc1 in the assay.
result: y

query: Lab log entry: CCCNS(=O)(=O)Nc1ncnc(OCCOc2ncc(Br)cn2)c1-c1ccc(Br)cc1 — outcome as called in the assay?
result: n

query: Hi, sorry to bother you, what did the test record for COc1ccc(S(=O)(=O)N2c3ccc(Cl)cc3[C@](O)(c3ccccc3Cl)[C@@H]2C(=O)N2CCC[C@H]2C(N)=O)cc1OC ?
result: n

query: What was the test verdict on N=C(N)SCCc1c[nH]cn1 ?
result: n

query: What classification did Cc1nc(C#Cc2ccnc(Cl)c2)c(C)n1-c1ccc(OC(F)(F)F)cc1 end up with in this test?
result: n

query: Which outcome was entered for the compound Cc1nc(C(=O)N2CCC[C@H]2Cc2nnc(-c3ccccc3)o2)c(-c2ccccc2F)s1 in this test?
result: n

query: GET /call?item= O=C1O[C@]2(CC[C@H](C(=O)Nc3ccn(-c4ccccc4F)n3)CC2)c2cnccc21 returns the recorded outcome of this test.
result: n

query: Query: recorded result category for CSc1ccc(C(=O)N[C@@H]2CCCC[C@@H]2NC(=O)CNC(=O)c2cc(C(F)(F)F)ccc2NC(=O)NC(C)C)cc1 in this test
result: n

query: Test call, this compound: COc1ccnc(N2CCC3(CCCN(Cc4c[nH]c5ccccc45)C3=O)CC2)n1
result: n

query: Returns: the outcome recorded for CCc1cc2c(cc1CC)CC(NC[C@H](O)c1ccc(O)c3[nH]c(=O)ccc13)C2 in this assay.
result: y

query: // return assay outcome for COc1ccc2cc(S(=O)(=O)N[C@H](CC(=O)N[C@H](Cc3ccc(CN4[C@H](C)CCC[C@@H]4C)cc3)C(=O)N(C)C(C)C)c3ccc4c(c3)OCO4)ccc2c1
result: n

query: Dear all, I need the recorded test outcome for CC(C)NCC(O)COc1cccc2[nH]ccc12 (stereo not drawn) , thank you.
result: n

query: Entry NC(=O)[C@@H]1CCCN1C(=O)[C@H](Cc1c[nH]cn1)NC(=O)[C@@H]1CCC(=O)N1 : call = ?
result: n

====

Entries and their inhibition values follow.
- test-system: Alpha-1B adrenergic receptor (Homo sapiens) (UniProt P35368)
- Sequence (P35368 whole entry): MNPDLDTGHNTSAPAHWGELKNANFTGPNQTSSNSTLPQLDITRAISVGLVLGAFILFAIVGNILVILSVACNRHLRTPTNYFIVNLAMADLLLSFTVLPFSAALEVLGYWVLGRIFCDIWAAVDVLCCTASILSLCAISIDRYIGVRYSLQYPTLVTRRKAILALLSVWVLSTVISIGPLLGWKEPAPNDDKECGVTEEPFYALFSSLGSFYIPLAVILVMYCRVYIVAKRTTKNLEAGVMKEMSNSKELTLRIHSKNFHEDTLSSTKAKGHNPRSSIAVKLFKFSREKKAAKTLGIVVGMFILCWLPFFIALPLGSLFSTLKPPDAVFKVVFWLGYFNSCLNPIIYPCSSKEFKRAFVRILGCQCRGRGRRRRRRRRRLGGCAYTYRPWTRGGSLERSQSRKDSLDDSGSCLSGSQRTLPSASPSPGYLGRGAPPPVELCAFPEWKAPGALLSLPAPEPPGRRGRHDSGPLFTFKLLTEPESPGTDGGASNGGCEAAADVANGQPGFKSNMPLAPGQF
- protocol-conditions: Compound concentration 10 µM
- Description: PDSP Primary Binding target: ADRA1B - Compounds are tested at 10 uM concentration, plate are incubated at room temperature in the dark for 90 minutes. Reaction are stopped by vacuum filtration onto 0.3% polyethyleneimine soaked filter mats using Filtermate harvester. Scintilation cocktail is then melted onto microwave-dried filters on a hot plate and the radio activity is counted in Microbia counter.
Provide only the numeric value, understood in %.

# annotated cases, reported inhibition shown
COC(=O)C1=C(C)NC(C)=C(C(=O)OCCCN2CCC(c3ccccc3)(c3ccccc3)CC2)[C@H]1c1cccc([N+](=O)[O-])c1 : 98.6
Cc1cc(NC(=O)NCCN2CCC(O)(Cc3ccccc3)CC2)c2ccccc2n1 : 26.1
CN(C)S(=O)(=O)c1ccc(NC(=S)N2CCC(C(O)(c3ccccc3)c3ccccc3)CC2)cc1 : -3.51
COc1ccc2cc(S(=O)(=O)N[C@H](CC(=O)N[C@H](Cc3ccc(CN4[C@H](C)CCC[C@@H]4C)cc3)C(=O)N(C)C(C)C)c3ccc4c(c3)OCO4)ccc2c1 : 2.74

query: Provide measured inhibition value, entry: NC[C@H](O)c1ccc(O)c(O)c1
result: 37.9

query: Consider the compound Cc1cn2cc(CC(=O)N3CCC4(CC3)CN(Cc3ccc(-n5nccn5)cc3Cl)C4)nc2s1 . State its measured inhibition.
result: 33.4
